molecular target: Tn5 transposase (EK54, MA56 and LP372 hyperactive mutant version) (Escherichia coli, UniProt Q46731, E54K/L372P/M56A); construct: made in house; assay: Inhibition of Tn5 transposase-DNA complex assembly (synapsis), gel shift assay; format: binding, prokaryotic (Tn5 transposon, IS4 family); details: 800 nM transposase, 160 nM dsDNA, 60 bp DNA, fit to exponential decay, ± SD from fit, at least two, typically three experiments
For each record, write down the corresponding IC50.
State the answer as a number, implicitly in µM.

Exam item: Look at this compound and give its reported IC50. O=C(Nc1ccccc1C(=O)O)c1ccc2c(c1)C(=O)N(c1ccccc1-c1ccccc1)C2=O [Compound 15]
Marked response: 20

Exam item: What does the record list as IC50 for Cc1ccc(C(=O)Nc2ccccc2C(=O)Nc2ccccc2C(=O)O)cc1 [Compound 8] ?
Marked response: 8.7

Exam item: Fill in the blank: the reported IC50 of COc1ccc(C(c2c(O)c3ccccc3oc2=O)c2c(O)c3ccccc3oc2=O)cc1CSc1ccccn1 [Compound 2] is ____.
Marked response: 4.8

Exam item: Name the recorded IC50 for O=C(O)C(Cc1ccccc1)N1C(=O)C(=CC=Cc2ccccc2)SC1=S (centres unmarked) [Compound 19] .
Marked response: 16

Exam item: # lookup: IC50 of Cc1ccc(C(c2c(O)c3ccccc3oc2=O)c2c(O)c3ccccc3oc2=O)cc1 [Compound 3]
Marked response: 3.5

Exam item: I would be grateful if you could share the reported IC50 for COc1cccc(OCCOc2cccc(C=C3SC(=S)NC3=O)c2)c1 [Compound 11] .
Marked response: 5.3

Exam item: Tell me the measured IC50 of CCc1nnc(NS(=O)(=O)c2ccc(NC=CC(=O)c3ccc4ccccc4c3)cc2)s1 [Compound 7] , please.
Marked response: 4

Exam item: Which IC50 value belongs to COc1cc(C=C2SC(=S)NC2=O)ccc1OS(=O)(=O)c1ccccc1[N+](=O)[O-] [Compound 14] ?
Marked response: 8.6

Exam item: # get_value(readout='IC50', item= COc1cc(C=C2SC(=S)NC2=O)cc(Cl)c1OC(C)C [Compound 5] )
Marked response: 10

Exam item: What IC50 value was documented for this compound, O=C1C(=C2c3ccccc3C(=O)C2C2c3ccccc3Oc3ccccc32)C(=O)c2ccccc21 (centres unmarked) [Compound 9] ?
Marked response: 3.4

Exam item: Using the record for O=S(=O)(c1cc(Cl)cc(Cl)c1O)c1cc(Cl)cc(Cl)c1O [Compound 6] , report its IC50.
Marked response: 4
